- measurementTarget: T1, human CEACAM6 (human, UniProt P40199 35-320)
- T1 construct: whole, on cells; also called CHO-CEACAM6
- T1 sequence (looked up): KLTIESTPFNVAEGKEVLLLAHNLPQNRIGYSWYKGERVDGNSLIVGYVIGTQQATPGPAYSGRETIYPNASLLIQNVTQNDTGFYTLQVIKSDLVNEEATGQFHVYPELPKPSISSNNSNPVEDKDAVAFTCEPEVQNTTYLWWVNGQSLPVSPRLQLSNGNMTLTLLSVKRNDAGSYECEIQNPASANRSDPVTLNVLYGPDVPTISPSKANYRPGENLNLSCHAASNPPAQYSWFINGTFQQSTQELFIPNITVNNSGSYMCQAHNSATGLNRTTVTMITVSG
- procedureDetails: FACS on CHO cells overexpressing human CEACAM6
quantityKind: binding result

INSERT INTO measurements (binder, quantitykind, result) VALUES
  ('P1AI5016 (antibody, human IgG1, V domains shown) VH: EVQLVESGGGLVQPGGSLRLSCAASGFNIKDTYMHWVRQAPGKGLEWVGRIDPANGNSKYADSVKGRFTISADTSKNTAYLQMNSLRAEDTAVYYCAPFGYYVSDYAMAYWGQGTTVTVSS VL: EIVLTQSPATLSLSPGERATLSCRAGESVDIFGVGFLHWYQQKPGQAPRLLIYRGSNRATGIPARFSGSGSGTDFTLTISSLEPEDFAVYYCQQTVEYPYTFGQGTKLEIK', 'binding result', 'no binding'),
  ('P1AI5018 (antibody, human IgG1, V domains shown) VH: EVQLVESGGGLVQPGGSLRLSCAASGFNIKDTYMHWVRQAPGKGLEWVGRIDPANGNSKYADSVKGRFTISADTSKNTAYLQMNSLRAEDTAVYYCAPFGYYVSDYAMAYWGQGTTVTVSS VL: EIVLTQSPATLSLSPGERATLSCRAGESVDIFGVGFLHWYQQKPGQAPRLLIYRGSNRATGIPARFSGSGSGTDFTLTISSLEPEDFAVYYCQQTTEYPYTFGQGTKLEIK', 'binding result', 'no binding'),
  ('P1AI5015 (antibody, human IgG1, V domains shown) VH: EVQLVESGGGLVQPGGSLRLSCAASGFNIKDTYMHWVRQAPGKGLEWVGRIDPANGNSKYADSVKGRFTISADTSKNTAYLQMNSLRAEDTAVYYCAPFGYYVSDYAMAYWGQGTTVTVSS VL: EIVLTQSPATLSLSPGERATLSCRAGESVDIFGVGFLHWYQQKPGQAPRLLIYRGSNRATGIPARFSGSGSGTDFTLTISSLEPEDFAVYYCQQTYEYPYTFGQGTKLEIK', 'binding result', 'no binding');
